# target or system: Maternal embryonic leucine zipper kinase (Homo sapiens) (UniProt Q14680)
# Sequence (Q14680 whole entry, looked up): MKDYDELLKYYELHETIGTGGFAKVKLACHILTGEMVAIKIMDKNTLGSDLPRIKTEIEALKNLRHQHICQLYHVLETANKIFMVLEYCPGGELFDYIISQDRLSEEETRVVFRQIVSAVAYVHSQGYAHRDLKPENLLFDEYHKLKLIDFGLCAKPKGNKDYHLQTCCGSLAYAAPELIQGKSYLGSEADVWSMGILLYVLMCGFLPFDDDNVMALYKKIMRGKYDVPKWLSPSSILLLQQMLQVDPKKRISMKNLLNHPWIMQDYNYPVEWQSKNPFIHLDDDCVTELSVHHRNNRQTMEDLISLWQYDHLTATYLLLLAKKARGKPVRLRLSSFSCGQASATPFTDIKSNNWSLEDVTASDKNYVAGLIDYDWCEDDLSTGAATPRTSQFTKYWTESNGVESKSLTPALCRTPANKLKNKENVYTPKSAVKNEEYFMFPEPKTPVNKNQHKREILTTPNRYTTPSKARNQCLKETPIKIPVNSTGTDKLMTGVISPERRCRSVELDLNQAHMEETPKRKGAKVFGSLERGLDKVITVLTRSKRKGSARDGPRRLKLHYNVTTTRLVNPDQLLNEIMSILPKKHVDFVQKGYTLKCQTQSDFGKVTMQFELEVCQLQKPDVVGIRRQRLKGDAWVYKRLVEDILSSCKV
# method notes: Inhibition of MELK assessed as residual enzyme activity at 10 uM relative to untreated control
endpoint: Activity (%)

O=Cc1c[nH]c2c1ccc1c3ccccc3[nH]c12    61
c1ccc2c(c1)[nH]c1c2ccc2cc[nH]c21    93
c1ccc2c(c1)[nH]c1c3cc[nH]c3ccc21    82
O=Cc1c[nH]c2ccc3c4ccccc4[nH]c3c12    89

---

# target or system: Ribosomal protein S6 kinase alpha-3 (Homo sapiens)
# method notes: Inhibition of RSK2 assessed as residual enzyme activity at 10 uM relative to untreated control
Attribute: Activity
endpoint: Activity (%)

O=Cc1c[nH]c2ccc3c4ccccc4[nH]c3c12    78
O=Cc1c[nH]c2c1ccc1c3ccccc3[nH]c12    77
c1ccc2c(c1)[nH]c1c3cc[nH]c3ccc21    107
c1ccc2c(c1)[nH]c1c2ccc2cc[nH]c21    99

---

# target or system: Serine/threonine-protein kinase Nek2 (Homo sapiens) (UniProt P51955)
# Sequence (whole entry): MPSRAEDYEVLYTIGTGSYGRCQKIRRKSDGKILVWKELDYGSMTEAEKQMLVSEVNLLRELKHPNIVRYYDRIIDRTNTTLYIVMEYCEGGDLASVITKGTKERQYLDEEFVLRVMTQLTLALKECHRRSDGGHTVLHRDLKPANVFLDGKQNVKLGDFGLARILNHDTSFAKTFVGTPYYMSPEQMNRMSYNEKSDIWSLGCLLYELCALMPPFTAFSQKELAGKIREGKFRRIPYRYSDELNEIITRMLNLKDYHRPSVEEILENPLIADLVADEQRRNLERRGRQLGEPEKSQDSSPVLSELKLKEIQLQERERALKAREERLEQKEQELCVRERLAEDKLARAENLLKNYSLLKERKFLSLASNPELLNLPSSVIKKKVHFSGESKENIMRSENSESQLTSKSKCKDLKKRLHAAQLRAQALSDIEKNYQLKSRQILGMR
# method notes: Inhibition of NEK2alpha assessed as residual enzyme activity at 10 uM relative to untreated control
endpoint: Activity (%)

c1ccc2c(c1)[nH]c1c3cc[nH]c3ccc21    96
O=Cc1c[nH]c2c1ccc1c3ccccc3[nH]c12    88
c1ccc2c(c1)[nH]c1c2ccc2cc[nH]c21    104
O=Cc1c[nH]c2ccc3c4ccccc4[nH]c3c12    100

---

# target or system: Protein kinase C alpha type (Homo sapiens) (UniProt P17252)
# method notes: Inhibition of PKCalpha assessed as residual enzyme activity at 10 uM relative to untreated control
Attribute: Activity
endpoint: Activity (%)

O=Cc1c[nH]c2c1ccc1c3ccccc3[nH]c12    84
c1ccc2c(c1)[nH]c1c2ccc2cc[nH]c21    111
O=Cc1c[nH]c2ccc3c4ccccc4[nH]c3c12    95
c1ccc2c(c1)[nH]c1c3cc[nH]c3ccc21    103

---

# target or system: Cyclin-dependent kinase 2/cyclin A (Homo sapiens) (UniProt P24941+P20248+P78396)
# method notes: Inhibition of CDK2/Cyclin A assessed as residual enzyme activity at 10 uM relative to untreated control
# Assay type: protein-complex assay
Attribute: Activity
endpoint: Activity (%)

O=Cc1c[nH]c2ccc3c4ccccc4[nH]c3c12    109
O=Cc1c[nH]c2c1ccc1c3ccccc3[nH]c12    74
c1ccc2c(c1)[nH]c1c3cc[nH]c3ccc21    95
c1ccc2c(c1)[nH]c1c2ccc2cc[nH]c21    97

---

Attribute: Activity
# target or system: Aurora kinase B (Homo sapiens) (UniProt Q96GD4)
# Sequence (Q96GD4 whole entry): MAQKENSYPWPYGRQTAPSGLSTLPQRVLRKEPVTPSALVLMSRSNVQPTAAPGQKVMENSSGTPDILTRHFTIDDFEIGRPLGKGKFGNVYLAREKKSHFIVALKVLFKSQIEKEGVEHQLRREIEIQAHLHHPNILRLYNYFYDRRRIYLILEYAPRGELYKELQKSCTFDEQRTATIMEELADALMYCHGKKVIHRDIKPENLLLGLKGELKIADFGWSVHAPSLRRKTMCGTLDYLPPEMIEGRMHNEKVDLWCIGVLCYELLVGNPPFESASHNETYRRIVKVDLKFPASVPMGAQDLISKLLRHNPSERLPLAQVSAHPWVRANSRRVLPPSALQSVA
# method notes: Inhibition of AURORA B assessed as residual enzyme activity at 10 uM relative to untreated control
endpoint: Activity (%)

c1ccc2c(c1)[nH]c1c2ccc2cc[nH]c21    67
O=Cc1c[nH]c2c1ccc1c3ccccc3[nH]c12    68
O=Cc1c[nH]c2ccc3c4ccccc4[nH]c3c12    92
c1ccc2c(c1)[nH]c1c3cc[nH]c3ccc21    67

---

# target or system: Serine/threonine-protein kinase 3 (Homo sapiens)
# Sequence (whole entry): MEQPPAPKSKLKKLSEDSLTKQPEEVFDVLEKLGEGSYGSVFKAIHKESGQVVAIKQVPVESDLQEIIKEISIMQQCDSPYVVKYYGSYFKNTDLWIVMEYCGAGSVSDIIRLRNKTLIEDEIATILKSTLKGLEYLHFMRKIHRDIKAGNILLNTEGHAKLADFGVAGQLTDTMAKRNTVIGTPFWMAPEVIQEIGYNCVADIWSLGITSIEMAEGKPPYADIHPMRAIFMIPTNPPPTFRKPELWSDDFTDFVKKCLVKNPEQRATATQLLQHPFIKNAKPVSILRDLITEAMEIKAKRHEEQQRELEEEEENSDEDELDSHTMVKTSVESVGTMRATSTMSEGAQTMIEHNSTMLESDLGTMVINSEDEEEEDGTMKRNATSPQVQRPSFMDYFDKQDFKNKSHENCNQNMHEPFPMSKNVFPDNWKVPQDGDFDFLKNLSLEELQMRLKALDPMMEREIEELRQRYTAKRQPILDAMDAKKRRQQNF
# method notes: Inhibition of MST2 assessed as residual enzyme activity at 10 uM relative to untreated control
endpoint: Activity (%)

c1ccc2c(c1)[nH]c1c2ccc2cc[nH]c21    82
O=Cc1c[nH]c2ccc3c4ccccc4[nH]c3c12    96
O=Cc1c[nH]c2c1ccc1c3ccccc3[nH]c12    63
c1ccc2c(c1)[nH]c1c3cc[nH]c3ccc21    77

---

# target or system: Serine/threonine-protein kinase N2 (Homo sapiens)
# method notes: Inhibition of PRK2 assessed as residual enzyme activity at 10 uM relative to untreated control
Attribute: Activity
endpoint: Activity

c1ccc2c(c1)[nH]c1c3cc[nH]c3ccc21    84%
c1ccc2c(c1)[nH]c1c2ccc2cc[nH]c21    95%
O=Cc1c[nH]c2c1ccc1c3ccccc3[nH]c12    31%
O=Cc1c[nH]c2ccc3c4ccccc4[nH]c3c12    101%

---

# target or system: Mitogen-activated protein kinase 9 (Homo sapiens) (UniProt P45984)
# Sequence (P45984 whole entry, looked up): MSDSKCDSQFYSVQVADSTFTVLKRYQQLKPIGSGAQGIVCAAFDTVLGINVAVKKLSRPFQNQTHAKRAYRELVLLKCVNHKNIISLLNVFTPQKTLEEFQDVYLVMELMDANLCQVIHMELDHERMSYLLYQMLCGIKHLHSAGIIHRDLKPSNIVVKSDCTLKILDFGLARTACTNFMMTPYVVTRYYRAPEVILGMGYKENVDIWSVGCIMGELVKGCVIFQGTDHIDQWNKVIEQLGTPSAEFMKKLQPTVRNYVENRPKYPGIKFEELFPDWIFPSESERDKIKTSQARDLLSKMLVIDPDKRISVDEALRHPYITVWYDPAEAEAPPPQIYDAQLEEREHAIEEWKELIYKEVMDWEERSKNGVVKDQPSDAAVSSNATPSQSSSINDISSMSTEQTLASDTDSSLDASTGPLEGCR
# method notes: Inhibition of JNK2 assessed as residual enzyme activity at 10 uM relative to untreated control
Attribute: Activity
endpoint: Activity (%)

c1ccc2c(c1)[nH]c1c3cc[nH]c3ccc21    130
O=Cc1c[nH]c2c1ccc1c3ccccc3[nH]c12    128
O=Cc1c[nH]c2ccc3c4ccccc4[nH]c3c12    111
c1ccc2c(c1)[nH]c1c2ccc2cc[nH]c21    118

---

# target or system: Serine/threonine-protein kinase BRSK2 (Homo sapiens)
# method notes: Inhibition of BRSK2 assessed as residual enzyme activity at 10 uM relative to untreated control
endpoint: Activity (%)

O=Cc1c[nH]c2c1ccc1c3ccccc3[nH]c12    22
c1ccc2c(c1)[nH]c1c3cc[nH]c3ccc21    76
O=Cc1c[nH]c2ccc3c4ccccc4[nH]c3c12    101
c1ccc2c(c1)[nH]c1c2ccc2cc[nH]c21    58

---

# target or system: Calcium/calmodulin-dependent protein kinase type 1 (Homo sapiens)
# method notes: Inhibition of CaMK1 assessed as residual enzyme activity at 10 uM relative to untreated control
Attribute: Activity
endpoint: Activity (%)

O=Cc1c[nH]c2ccc3c4ccccc4[nH]c3c12    36
c1ccc2c(c1)[nH]c1c3cc[nH]c3ccc21    80
O=Cc1c[nH]c2c1ccc1c3ccccc3[nH]c12    71
c1ccc2c(c1)[nH]c1c2ccc2cc[nH]c21    29

---

Attribute: Activity
# target or system: Serine/threonine-protein kinase PAK 5 (Homo sapiens)
# method notes: Inhibition of PAK5 assessed as residual enzyme activity at 10 uM relative to untreated control
endpoint: Activity (%)

O=Cc1c[nH]c2ccc3c4ccccc4[nH]c3c12    96
c1ccc2c(c1)[nH]c1c2ccc2cc[nH]c21    82
O=Cc1c[nH]c2c1ccc1c3ccccc3[nH]c12    87
c1ccc2c(c1)[nH]c1c3cc[nH]c3ccc21    99

---

# target or system: Serine/threonine-protein kinase Sgk1 (Homo sapiens) (UniProt O00141)
# Sequence (whole entry): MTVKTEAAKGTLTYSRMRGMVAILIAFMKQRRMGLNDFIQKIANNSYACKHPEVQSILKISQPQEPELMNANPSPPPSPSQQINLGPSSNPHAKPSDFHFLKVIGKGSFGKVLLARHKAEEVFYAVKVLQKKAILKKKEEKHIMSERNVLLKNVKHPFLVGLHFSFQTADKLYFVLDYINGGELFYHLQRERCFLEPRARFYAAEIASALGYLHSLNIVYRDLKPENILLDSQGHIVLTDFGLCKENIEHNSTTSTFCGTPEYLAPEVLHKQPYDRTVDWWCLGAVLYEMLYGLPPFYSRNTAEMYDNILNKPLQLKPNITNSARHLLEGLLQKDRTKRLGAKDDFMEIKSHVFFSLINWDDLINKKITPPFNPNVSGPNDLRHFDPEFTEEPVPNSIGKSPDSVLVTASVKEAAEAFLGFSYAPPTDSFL
# method notes: Inhibition of SGK1 assessed as residual enzyme activity at 10 uM relative to untreated control
Attribute: Activity
endpoint: Activity (%)

c1ccc2c(c1)[nH]c1c2ccc2cc[nH]c21    82
O=Cc1c[nH]c2c1ccc1c3ccccc3[nH]c12    64
c1ccc2c(c1)[nH]c1c3cc[nH]c3ccc21    102
O=Cc1c[nH]c2ccc3c4ccccc4[nH]c3c12    105
